- Test system: DU-145 prostate
- experiment_notes: NCI-60 one-dose screen, 48 h (100 = growth as untreated, 0 = no growth, -100 = all killed)
- run_parameters: 10 µM
The panel holds about 83,000 compounds, 20% with a hit somewhere; the sample as a whole holds those more often.
Please note: Met applies when growth is -90% or greater, and Not met applies otherwise.

{"mol_smiles": "N#C/C(=C1C=C/C(=N\\O)C(Cl)=C\\1)c1ccccc1", "experimental_system": "DU-145 prostate", "category_label": "Met"}
{"mol_smiles": "COc1cc(C(C)(C)C)cc(OC)c1C(O)(c1c(OC)cc(C(C)(C)C)cc1OC)c1c(OC)cc(C(C)(C)C)cc1OC", "experimental_system": "DU-145 prostate", "category_label": "Not met"}
{"mol_smiles": "CN1CCN(c2ccc3nc(-c4ccc5nc(-c6ccc(O)cc6)[nH]c5c4)[nH]c3c2)CC1", "experimental_system": "DU-145 prostate", "category_label": "Met"}
{"mol_smiles": "BrC/C=C/C[P+](c1ccccc1)(c1ccccc1)c1ccccc1", "experimental_system": "DU-145 prostate", "category_label": "Met"}

###

- System: A498 renal
- experiment_notes: NCI-60 one-dose screen, 48 h
- run_parameters: 10 µM
About 83,000 compounds went through this panel and 20% of them were active in at least one assay; those are over-represented in the sample as a whole. Active and inactive are the calls of the source. The calls were made as follows: active = growth percent below 10; inactive = the rest.
Outcomes: active, inactive

{"mol_smiles": "Cc1cnc(/C=N\\NC(N)=S)c2cccc(N)c12", "category_label": "inactive"}
{"mol_smiles": "Nc1ccc2cc(Br)c3ccccc3c2c1", "category_label": "inactive"}
{"mol_smiles": "N#C/C(=C1C=C/C(=N\\O)C(Cl)=C\\1)c1ccccc1", "category_label": "inactive"}
{"mol_smiles": "COc1cc(C(C)(C)C)cc(OC)c1C(O)(c1c(OC)cc(C(C)(C)C)cc1OC)c1c(OC)cc(C(C)(C)C)cc1OC", "category_label": "active"}
{"mol_smiles": "S=c1[nH]nc(Cc2ccccc2)c(=S)[nH]1", "category_label": "inactive"}
